Origin of the recorded values: patent US7348427B2

test system: E. faecalis ATCC 29212; test: MIC, NCCLS broth microdilution assay; type: cell-based, Enterococcus faecalis; conditions: C = E. faecalis ATCC 29212
ASSAY_ENDPOINT: Minimum Inhibitory Concentration (MIC)

>>> df
                                   compound             test_target                          assay_endpoint              obs_value
0  CN(C)CCCNC(=O)c1cc(NC(=O)c2cc(NC(=O)c3cc(NC(=O)c4ccc(Cl)cc4F)cn3C)cn2C)cn1C [Compound B-50]  E. faecalis ATCC 29212  Minimum Inhibitory Concentration (MIC)    +++ (+++ = MIC ≦ 4)
1  COCn1cc(NC(=O)c2ccc(F)cc2F)cc1C(=O)Nc1cc(C(=O)Nc2cc(C(=O)NCCN3CCOCC3)n(C)c2)n(C)c1 [Compound C-7]  E. faecalis ATCC 29212  Minimum Inhibitory Concentration (MIC)  + (+ = 12 ≦ MIC ≦ 32)
2  Cn1cc(NC(=O)c2cc(NC(=O)c3cc(NC(=O)c4ccc(Cl)c(Cl)c4)cn3C)cn2C)cc1C(=O)NCCN1CCOCC1 [Compound B-53]  E. faecalis ATCC 29212  Minimum Inhibitory Concentration (MIC)    +++ (+++ = MIC ≦ 4)
3  Cn1cc(NC(=O)c2cc(NC(=O)c3cc(NC(=O)c4ccc(F)cc4F)cn3C)cn2C)cc1C(=O)NCCc1cccnc1 [Compound B-24]  E. faecalis ATCC 29212  Minimum Inhibitory Concentration (MIC)    +++ (+++ = MIC ≦ 4)
4  Cn1cc(NC(=O)c2cc(NC(=O)c3cc(NC(=O)c4ccc(Cl)cc4NCCN4CCCCC4)cn3C)cn2C)cc1C(N)=O [Compound B-65]  E. faecalis ATCC 29212  Minimum Inhibitory Concentration (MIC)  + (+ = 12 ≦ MIC ≦ 32)

List the reported Minimum Inhibitory Concentration (MIC) of each compound below.
1. Cn1cc(NC(=O)c2cc(NC(=O)c3ccc(Cl)cc3F)c[nH]2)cc1C(=O)NCCN1CCC(O)CC1 [Compound A-23]
2. Cn1cc(NC(=O)c2cc(NC(=O)c3cc(NC(=O)c4ccc(Cl)c(Cl)c4)c[nH]3)cn2C)cc1C(=O)NCCN1CCOCC1 [Compound A-30]
3. Cn1cc(NC(=O)c2cc(NC(=O)c3cc(NC(=O)c4ccc(F)cc4F)cn3C)cn2C)cc1C(=O)NCCNC(=N)N [Compound B-23]
4. Cn1cc(NC(=O)c2cc(NC(=O)c3cc(NC(=O)c4cccc(C(F)(F)F)c4)cn3C)cn2C)cc1C(=O)NCCN1CCOCC1 [Compound B-70]
5. Cc1cc(NC(=O)c2cc(NC(=O)c3cc(NC(=O)c4ccc(Cl)cc4NCCN4CCCC4)cn3C)c[nH]2)sn1 [Compound C-23]
6. Cn1cc(NC(=O)c2cc(NC(=O)c3ccc(Cl)cc3F)c[nH]2)cc1C(=O)NCCN1CCCC1 [Compound A-19]
7. Cn1cc(NC(=O)c2cc(NC(=O)c3ccc(Cl)cc3)cn2C)cc1C(=O)NCCN1CCOCC1 [Compound B-57]

["+ (+ = 12 ≦ MIC ≦ 32)", "+++ (+++ = MIC ≦ 4)", "+++ (+++ = MIC ≦ 4)", "++ (++ = 4 < MIC < 12)", "++ (++ = 4 < MIC < 12)", "+++ (+++ = MIC ≦ 4)", "+++ (+++ = MIC ≦ 4)"]

What value of Minimum Inhibitory Concentration (MIC) has been recorded for this entry: Cn1cc(NC(=O)c2cc(NC(=O)c3cc(NC(=O)c4ccc(Cl)cc4)cn3C)cn2CCN2CCOCC2)cc1C(=O)NCCN1CCOCC1 [Compound D-27]
+++ (+++ = MIC ≦ 4)
